Assay: Intrinsic clearance in cryopreserved human hepatocytes measured per 10^6 cells
Type: ADME, cell-based, Hepatocyte
Conditions: read-out: CLH
# hepatocyte CLint listing for each entry below

// below: answered molecules
{"STRUCTURE_AS_SMILES": "C[C@@H](Nc1cc(F)cc(F)c1)c1cc(C(=O)N2CCC2)cc2c(=O)cc(N3CCOCC3)oc12", "hepatocyte CLint": "< 3 µL/min/1e6 cells"}
{"STRUCTURE_AS_SMILES": "CN(C)C(=O)c1cc(CN(C)c2cc(F)cc(F)c2)c2oc(N3CCOCC3)cc(=O)c2c1", "hepatocyte CLint": "< 5 µL/min/1e6 cells"}

Supply hepatocyte CLint value. Item: "C[C@H](c1cc(C(=O)N2CCC(O)CC2)cc2c(=O)cc(N3CCOCC3)oc12)N(C)c1cc(F)cc(F)c1"
< 3 µL/min/1e6 cells

====

Test: Intrinsic clearance in cryopreserved human hepatocytes measured per 10^6 cells
Format: ADME, cell-based, Hepatocyte
Settings: read-out: CLH
MEASUREMENT_KIND: hepatocyte CLint

// below: answered compounds
{"STRUCTURE_AS_SMILES": "C[C@@H](Nc1cc(F)cc(F)c1F)c1cc(C(=O)N(C)C)cc2c(=O)cc(N3CCOCC3)oc12", "VALUE_REPORTED": "< 5 µL/min/1e6 cells"}
{"STRUCTURE_AS_SMILES": "CNC(=O)c1cc([C@@H](C)Nc2cc(F)cc(F)c2)c2oc(N3CCOCC3)cc(=O)c2c1", "VALUE_REPORTED": "< 3 µL/min/1e6 cells"}
{"STRUCTURE_AS_SMILES": "CN(C)C(=O)c1cc(CNc2cc(F)cc(F)c2)c2oc(N3CCOCC3)cc(=O)c2c1", "VALUE_REPORTED": "< 3 µL/min/1e6 cells"}

Now turn to the next compound.
Supply hepatocyte CLint value. Item: "C[C@H](c1cc(C(=O)N(C)CCO)cc2c(=O)cc(N3CCOCC3)oc12)N(C)c1cc(F)cc(F)c1"
< 3 µL/min/1e6 cells

====

Molecular target: Phosphatidylinositol 4,5-bisphosphate 3-kinase catalytic subunit beta isoform (Homo sapiens, UniProt P42338)
Sequence (P42338 whole entry, canonical isoform): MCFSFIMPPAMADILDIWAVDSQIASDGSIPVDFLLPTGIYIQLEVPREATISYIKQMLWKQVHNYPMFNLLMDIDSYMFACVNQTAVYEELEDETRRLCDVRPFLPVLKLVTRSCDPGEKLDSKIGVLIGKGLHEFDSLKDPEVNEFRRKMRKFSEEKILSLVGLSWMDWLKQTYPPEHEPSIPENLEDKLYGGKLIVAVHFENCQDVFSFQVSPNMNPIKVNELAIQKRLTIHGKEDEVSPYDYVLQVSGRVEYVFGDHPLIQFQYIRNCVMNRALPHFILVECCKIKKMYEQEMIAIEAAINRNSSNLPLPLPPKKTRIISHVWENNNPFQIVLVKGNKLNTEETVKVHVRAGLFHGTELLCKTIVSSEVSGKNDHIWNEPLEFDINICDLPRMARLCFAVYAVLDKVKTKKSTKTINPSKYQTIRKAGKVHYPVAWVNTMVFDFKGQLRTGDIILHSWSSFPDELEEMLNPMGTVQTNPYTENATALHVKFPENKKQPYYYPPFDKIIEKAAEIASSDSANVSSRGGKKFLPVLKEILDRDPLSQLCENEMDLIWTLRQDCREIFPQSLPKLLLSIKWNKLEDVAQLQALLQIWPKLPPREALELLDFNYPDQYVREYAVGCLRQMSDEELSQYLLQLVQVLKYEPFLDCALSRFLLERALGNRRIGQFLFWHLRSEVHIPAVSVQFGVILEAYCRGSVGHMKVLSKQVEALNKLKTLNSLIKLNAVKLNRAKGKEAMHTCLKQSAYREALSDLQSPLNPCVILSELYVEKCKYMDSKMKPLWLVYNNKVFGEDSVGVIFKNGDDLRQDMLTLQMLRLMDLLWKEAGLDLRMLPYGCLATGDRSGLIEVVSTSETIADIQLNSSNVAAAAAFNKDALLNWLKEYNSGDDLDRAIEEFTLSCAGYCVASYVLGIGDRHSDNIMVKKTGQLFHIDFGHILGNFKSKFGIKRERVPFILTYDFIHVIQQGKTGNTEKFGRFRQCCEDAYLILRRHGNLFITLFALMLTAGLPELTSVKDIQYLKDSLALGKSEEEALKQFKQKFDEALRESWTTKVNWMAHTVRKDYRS
Test: Inhibition of human recombinant PI3Kbeta using PIP2 by Kinase-Glo Plus assay
MEASUREMENT_KIND: IC50 (nM)

{"COMPOUND": "C[C@H]1CN(c2cc(=O)c3cc(C(=O)N(C)C)cc([C@@H](C)Nc4cc(F)cc(F)c4)c3o2)CCO1", "IC50 (nM)": 4}
{"COMPOUND": "COCCN(C)C(=O)c1cc(C(C)Nc2cc(F)cc(F)c2)c2oc(N3CCOCC3)cc(=O)c2c1 (racemic)", "IC50 (nM)": 11}
{"COMPOUND": "CCN(CC)C(=O)c1cc(C(C)Nc2cc(F)cc(F)c2)c2oc(N3CCOCC3)cc(=O)c2c1 (racemic)", "IC50 (nM)": 10}
{"COMPOUND": "CC(Nc1cc(F)cc(F)c1)c1cc(C(=O)N2CCCC2)cc2c(=O)cc(N3CCOCC3)oc12 (racemic)", "IC50 (nM)": 9}

1. CC(Nc1ccc(F)c(Cl)c1)c1cc(C(=O)N(C)C)cc2c(=O)cc(N3CCOCC3)oc12 (racemic)
2. C[C@@H](Nc1ccc(F)c(F)c1)c1cc(C(=O)N(C)C)cc2c(=O)cc(N3CCOCC3)oc12
Param metric = IC50; output whichever of 1 , 2 has the minimum value. Choose, then provide that item's label.
2
(2: 7 nM, 1: 12 nM)
